- testedOn: Glycine max GmPDH1 variant N222D, SEQ ID NO: 2 (Glycine max, UniProt I1MYY4, N222D)
- Sequence (I1MYY4 1-271 N222D): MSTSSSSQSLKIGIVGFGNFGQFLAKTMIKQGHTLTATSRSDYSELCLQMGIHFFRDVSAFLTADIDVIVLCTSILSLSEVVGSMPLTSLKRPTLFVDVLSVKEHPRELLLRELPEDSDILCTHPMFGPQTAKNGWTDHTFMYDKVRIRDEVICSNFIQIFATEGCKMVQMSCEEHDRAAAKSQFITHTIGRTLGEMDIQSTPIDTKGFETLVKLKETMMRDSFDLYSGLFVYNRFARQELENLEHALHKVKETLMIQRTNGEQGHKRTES
- experiment: ADH and PDH assay: steady-state kinetics and Tyr inhibition, GmPDH1 N222D
- Type: biochemical, Glycine max (soybean)
- appliedConditions: IC50^Tyr, substrate arogenate (1 mM), 0.5 mM NADP^+
outcomeMeasure: pIC50
Scale explanation: pIC50 corresponds to minus log10 of a concentration expressed in moles per litre.

Challenge: Give the reported pIC50 for N[C@@H](Cc1ccc(O)cc1)C(=O)O (system: Glycine max GmPDH1 variant N222D, SEQ ID NO: 2 (Glycine max, UniProt I1MYY4, N222D)).
Response given: 2.33

Recorded values, source patent US12134788B2.
